- Tested on: platelet aggregation stimulated by thrombin (gel-filtered platelets)
- Experimental Details: In vitro inhibition of thrombin-induced gel-filtered platelet aggregation assay
- Assay type: cell-based
- Experimental Parameters: thrombin-induced gel-filtered human platelet aggregation; agonist thrombin 50 μL of 1 unit/mL; read-out: IC50 (μM) Thr GFP Aggr
Experimental Readout: IC50 (µM)
Write the answer as a number in µM, unit excluded.

Can you look up the measured IC50 of `NCC[C@H](NC(=O)[C@H](Cc1ccc(F)c(F)c1)NC(=O)Nc1ccc2c(CN3CCCC3)nn(Cc3c(Cl)cccc3Cl)c2c1)C(=O)NCc1ccccc1` for me?
0.31

Can you look up the measured IC50 of `NCC[C@H](NC(=O)[C@H](Cc1ccc(F)c(F)c1)NC(=O)Nc1ccc2c(CN3CCCC3)nn(Cc3c(Cl)cccc3Cl)c2c1)C(=O)N[C@H](CO)c1ccccc1` for me?
0.66

Can you look up the measured IC50 of `NCC[C@H](NC(=O)[C@H](Cc1ccc(Cl)cc1)NC(=O)Nc1ccc2c(CN3CCCC3)nn(Cc3c(Cl)cccc3Cl)c2c1)C(=O)NCc1ccccc1` for me?
0.26

Can you look up the measured IC50 of `NCCNC(=O)[C@H](Cc1ccncc1)NC(=O)[C@H](Cc1ccc(F)c(F)c1)NC(=O)Nc1ccc2c(CN3CCCC3)nn(Cc3c(Cl)cccc3Cl)c2c1` for me?
0.5

Can you look up the measured IC50 of `NCCNC(=O)[C@H](Cc1cccs1)NC(=O)[C@H](Cc1ccc(Cl)cc1)NC(=O)Nc1ccc2c(CN3CCCC3)nn(Cc3c(Cl)cccc3Cl)c2c1` for me?
0.3

Can you look up the measured IC50 of `C[C@@H](NC(=O)[C@H](CCN)NC(=O)[C@H](Cc1ccc(F)c(F)c1)NC(=O)Nc1ccc2c(CN3CCCC3)nn(Cc3c(Cl)cccc3Cl)c2c1)c1ccccc1` for me?
0.32
